Where these numbers come from: ChEMBL document CHEMBL1135926

Below are pIC50 values measured for Prothrombin (Homo sapiens, UniProt P00734).
pIC50: −log10 of the molar value.

| item.smiles | pIC50 |
| --- | --- |
| Cn1c(COc2ccc(C(=N)N)cc2)nc2cc(N(CC(=O)O)S(=O)(=O)c3cccc4cccnc34)ccc21 | 7.24 |
| CN(c1ccc2c(c1)nc(Cc1ccc(C(=N)N)cc1)n2C)S(=O)(=O)c1ccccc1 | 5.89 |
| Cn1c(CNc2ccc(C(=N)N)cc2)nc2cc(C(=O)N(CCCC(=O)O)c3ccccc3)ccc21 | 8.00 |
| Cn1c(CNc2ccc(C(=N)N)cc2)nc2cc(N(CC(=O)O)S(=O)(=O)c3cccc4cccnc34)ccc21 | 7.96 |
| Cn1c(Cc2ccc(C(=N)N)cc2)nc2cc(NS(=O)(=O)c3cccc4ccccc34)ccc21 | 6.22 |
| CCn1c(Cc2ccc(C(=N)N)cc2)nc2cc(NS(=O)(=O)c3ccccc3)ccc21 | 5.62 |
| Cn1c(CNc2ccc(C(=N)N)cc2)nc2cc(C(=O)N(CCC(=O)O)c3ccccc3)ccc21 | 8.27 |
| N=C(N)c1ccc(Cc2nc3cc(NS(=O)(=O)c4ccccc4)ccc3[nH]2)cc1 | 4.72 |
| Cn1c(Cc2ccc(C(=N)N)cc2)nc2cc(NS(=O)(=O)c3cccc4cnccc34)ccc21 | 6.29 |
